Form field: TGI (one value per entry).
System: UACC-257 melanoma
experiment: NCI tumour cell line growth inhibition, 48 h
endpoint: TGI

{"columns": ["compound", "tgt", "endpoint", "recorded.measurement"],
 "data": [
  ["COCn1cc(C2=C(C)C(=O)C(C)=C(C)C2=O)cn1", "UACC-257 melanoma", "TGI", "> 100 µM"],
  ["O=C=C=P(c1ccccc1)(c1ccccc1)c1ccccc1", "UACC-257 melanoma", "TGI", "> 100 µM"],
  ["CN(C)c1ccc(/C=C(\\C#N)c2cc3ccccc3[nH]2)cc1", "UACC-257 melanoma", "TGI", "> 100 µM"],
  ["CCCCC(=O)N(c1ccc(Nc2c3ccccc3nc3cc([N+](=O)[O-])ccc23)cc1)S(C)(=O)=O", "UACC-257 melanoma", "TGI", "62.5 µM"],
  ["COc1ccccc1-n1nnc2c(N)nc(N)nc21", "UACC-257 melanoma", "TGI", "> 100 µM"],
  ["CC(=O)[CH-]C(=O)c1ccccc1.CC(=O)[CH-]C(=O)c1ccccc1.Cl.[O-]c1ccnc2ccccc12.[O-]c1ccnc2ccccc12.[Ti+4]", "UACC-257 melanoma", "TGI", "> 100 µM"],
  ["CNC(=O)C(C)Oc1ccc(OCC2CCCCC2)cc1 (centres undefined)", "UACC-257 melanoma", "TGI", "> 100 µM"],
  ["CC1OC(n2cc(C(F)(F)F)c(=O)[nH]c2=O)C=CC1=O (centres undefined)", "UACC-257 melanoma", "TGI", "38.8 µM"],
  ["CCOC(=O)[C@@H]1[C@@H](c2ccccc2)N(C)O[C@@]1(c1ccccc1)C(F)(F)F", "UACC-257 melanoma", "TGI", "> 100 µM"]
]}
